growth values by entry
tested on: EKVX NSCLC; assay: NCI-60 one-dose screen, 48 h (100 = growth as untreated, 0 = no growth, -100 = all killed); conditions: 10 µM unless noted
The panel holds about 83,000 compounds, 20% with a hit somewhere; the sample as a whole holds those more often.
Entry rule: numbers only, all in %.

Solved entries (count: 4):
compound=CC(C)n1c(NCCc2ccc(O)c(O)c2)nc2c1c(=O)n(C)c(=O)n2C property_name=growth numeric_value=101
compound=COc1cc2ncnc(Nc3cccc(Cl)c3F)c2cc1OC(=O)N1CCN(C)C[C@H]1C property_name=growth numeric_value=57.8
compound=C=CC[n+]1c(/C=C/C=C2\N(C)c3ccccc3C2(C)C)sc2ccc(OC)cc21 property_name=growth numeric_value=10.9
compound=C=CC(=O)Nc1cc2c(Nc3ccc(F)c(Cl)c3)ncnc2cc1OCCCN1CCOCC1 property_name=growth numeric_value=15.8

Note down growth recorded for O=C(Cc1ccccc1)Nc1nnc(NC2CCN(c3nnc(NC(=O)Cc4ccccc4)s3)CC2)s1
90.2

Note down growth recorded for Cc1oc2c(C(=O)N/N=C\c3ccc(O)cc3O)c[nH]c2c1C
26.6

Note down growth recorded for CCOC(=O)C1=C(C)NC(=O)NC1c1cc(=O)oc2ccc(C)cc12 (centres undefined)
95.2

Note down growth recorded for CC/C=C\C[C@H]1C/C=C2/C(=O)C=C[C@@H]2C/C=C\CCCC(=O)O1
11.8

Note down growth recorded for Cc1nc(N)sc1-c1ccnc(Nc2ccc(N3CCOCC3)cc2)n1
71.7

Note down growth recorded for CNC(=O)c1ccccc1Nc1nc(Nc2ccc3c(c2OC)CCC[C@H](N2CCN(CCO)CC2)C3)ncc1Cl
11.8

Note down growth recorded for Cc1csc(-c2nnc(Nc3ccc(Oc4ncccc4-c4ccnc(N)n4)cc3)c3ccccc23)c1
64.8

* * *

System: UACC-62 melanoma
Test: NCI-60 one-dose screen, 48 h
Settings: 10 µM unless noted
Experimental: Growth inhibition of the UACC-62 human tumor cell line is measured as a screen for anti-cancer activity. Cells are grown in 96 well plates and exposed to the test compound for 48 hours. Compounds are tested at a single concentration, which is 10^-5 M for most compounds. The reported endpoint is percent growth (GI% or GIPRCNT), where numbers from 0 - 100% represent growth inhibition, and numbers from -100% - 0 represent cell death. For example, a value of 40 represents 60% growth inhibition. […]
This is part of a sample that, as a whole, favours compounds with a hit. Of some 83,000 tested, about 20% had one in any assay. Active and inactive are the calls of the source. Rule for the calls: active = growth percent below 10; inactive = the rest.
// one of TRUE (active), FALSE (inactive), no free text

I would be grateful if you could indicate the recorded call for O=c1nc2c(-c3nc4ccccc4s3)n[nH]n2c2sc3c(c12)CCCC3 .
FALSE

* * *

growth values by entry
tested on: SK-OV-3 ovarian; test: NCI-60 one-dose screen, 48 h (100 = growth as untreated, 0 = no growth, -100 = all killed); details: 10 µM unless noted
About 83,000 compounds went through this panel and 20% of them were active in at least one assay; those are over-represented in the sample as a whole.
Entry rule: numbers only, all in %.

Solved entries (count: 8):
compound=O=C(Nc1cnn2ccc(N3CCC[C@@H]3c3cc(F)ccc3F)nc12)N1CC[C@H](O)C1 experimental_target="SK-OV-3 ovarian" numeric_value=79.6
compound=Nc1c(C(=O)c2ccccc2)sc2nc(-c3cccs3)cc(-c3cccs3)c12 experimental_target="SK-OV-3 ovarian" numeric_value=46
compound="COC(=O)CNC(=O)[C@@H](OC)[C@@H]1Cc2cc3cc(OC4CC(OC5CC(O)C(O)C(C)O5)C(O)C(C)O4)c(C)c(O)c3c(O)c2C(=O)[C@H]1OC1CC(OC2CC(OC3CC(C)(O)C(O)C(C)O3)C(O)C(C)O2)C(O)C(C)O1 (stereo partly drawn)" experimental_target="SK-OV-3 ovarian" numeric_value=24.3
compound=Cc1nc(N)sc1-c1ccnc(Nc2ccc(N3CCOCC3)cc2)n1 experimental_target="SK-OV-3 ovarian" numeric_value=8.94
compound=C/C(=C(/c1ccc(Cl)cc1)c1ccc(OCCN2CCCCC2)cc1)c1ccccc1 experimental_target="SK-OV-3 ovarian" numeric_value=86
compound=COc1cc(Nc2ncc(F)c(Nc3ccc4c(n3)NC(=O)C(C)(C)O4)n2)cc(OC)c1OC experimental_target="SK-OV-3 ovarian" numeric_value=21.8
compound="CCOC(=O)C1=C(C)NC(=O)NC1c1cc(=O)oc2ccc(C)cc12 (stereo not drawn)" experimental_target="SK-OV-3 ovarian" numeric_value=104
compound=O=c1nc2c(-c3nc4ccccc4s3)n[nH]n2c2sc3c(c12)CCCC3 experimental_target="SK-OV-3 ovarian" numeric_value=92.3

Note down growth recorded for CC(C)[C@@H]1CC[C@@H]2[C@@H]1[C@H](OC(=O)/C=C/c1ccccc1)[C@]1(C(C)C)C[C@@H](OC(=O)CO)[C@@]2(C)O1
91.3

Note down growth recorded for COC1CCC(N2C(=O)CNc3ncc(-c4ccc(C(C)(C)O)nc4)nc32)CC1 (stereo not drawn)
-27.6

Note down growth recorded for CC[n+]1c(/C=C/C=C2\N(C)c3ccccc3C2(C)C)sc2ccccc21
-12.3

Note down growth recorded for COC(=O)c1[nH]cnc1/N=N/N(C)CCO
98.3

Note down growth recorded for CS(=O)(=O)N1CCc2c(-c3cnc(N)nc3)nc(N3CCOCC3)nc21
-40.6

Note down growth recorded for COC(=O)[C@]12CC[C@@H](C)[C@H](C)[C@@H]1C1=CC[C@@H]3[C@@]4(C)C[C@@H](OC(=O)/C=C/c5ccccc5)[C@H](O)[C@@](C)(CO)[C@@H]4[C@H](O)C[C@@]3(C)[C@]1(C)CC2
41.9

Note down growth recorded for CCOc1cccc(/C=N/NC(=O)c2ccccc2Nc2ccnc(C(F)(F)F)c2)c1O
8.43

Note down growth recorded for CCc1nc(C(N)=O)c(Nc2ccc(N3CCC(N4CCN(C)CC4)CC3)c(OC)c2)nc1NC1CCOCC1
4.92

Note down growth recorded for COc1cc2ncnc(Oc3cccc(NC(=O)Nc4cc(C(C)(C)C(F)(F)F)on4)c3)c2cc1OC
-26.5

Note down growth recorded for Cn1cc(-c2[nH]c3cc(NC(=O)[C@H](N)C4CCCCC4)cc4c3c2C=NNC4=O)cn1
6.78

* * *

tested on: TK-10 renal; assay: NCI-60 one-dose screen, 48 h (100 = growth as untreated, 0 = no growth, -100 = all killed); conditions: 10 µM unless noted
The panel holds about 83,000 compounds, 20% with a hit somewhere; the sample as a whole holds those more often.
Rule: satisfied for growth not less than 10%, not satisfied for anything less.

molecule=COc1ccc(/C(C)=C(\c2ccc(Cl)cc2)c2ccc(OCCN3CCCCCC3)cc2)cc1 assigned_class=satisfied

Please tell me: is the molecule COc1cc2c(cc1OCCCCCCN1CCN(c3ncnc4ccccc34)CC1)N=CC1CCCN1C2=O (centres undefined) at or over 10% in terms of growth?
not satisfied

Please tell me: is the molecule C=CCCCOC1[C@H](OCc2ccccc2)C(OCc2ccccc2)C(OC)O[C@@H]1CNC(=O)c1cccc(I)c1 (some centres undefined) at or over 10% in terms of growth?
satisfied

Please tell me: is the molecule Cc1cc(C)n(CC(=O)Nc2ccc(-c3nc4ccccc4s3)cc2)n1 at or over 10% in terms of growth?
satisfied

Please tell me: is the molecule COc1ccc2c(CCC(c3ccccc3)c3ccccc3)c3[n+](cc2c1OC)CCc1cc2c(cc1-3)OCO2 at or over 10% in terms of growth?
not satisfied

* * *

test system: RPMI-8226 leukemia; assay: NCI-60 one-dose screen, 48 h; conditions: 10 µM unless noted
About 83,000 compounds went through this panel and 20% of them were active in at least one assay; those are over-represented in the sample as a whole. Activity calls are given as the source filed them. Rule for the calls: active = growth percent below 10; inactive = the rest.
// one of active, inactive, no free text

Some solved entries appear below for comparison.
compound=O=C(CNc1nc(-c2ccc(Cl)cc2)cs1)Nc1ccc(-c2nc3ccccc3s2)cc1 assigned_class=inactive
compound=c1ccc2c(c1)CCN(NCCN1CCCC1)C2 assigned_class=inactive
compound=Cc1cc(-c2cc(O)ccc2Cl)cc2nnc(Nc3ccc(OCCN4CCCC4)cc3)nc12 assigned_class=active
compound=CNS(=O)(=O)Nc1nccc(Cc2c(C)c3ccc(Oc4ncccn4)cc3oc2=O)c1F assigned_class=inactive
compound=Nc1c(C(=O)c2ccccc2)sc2nc(-c3cccs3)cc(-c3cccs3)c12 assigned_class=inactive
compound=C=CC(=O)N1CCC(Oc2cc3c(Nc4ccc(Cl)c(Cl)c4F)ncnc3cc2OC)CC1 assigned_class=inactive

I would be grateful if you could indicate the recorded call for COc1cc(OC)c(/C=C/S(=O)(=O)Cc2ccc(OC)c(NCC(=O)O)c2)c(OC)c1 .
inactive

I would be grateful if you could indicate the recorded call for Cn1cnc2c(F)c(Nc3ccc(Br)cc3F)c(C(=O)NOCCO)cc21 .
inactive

I would be grateful if you could indicate the recorded call for CCc1nc(C(N)=O)c(Nc2ccc(N3CCC(N4CCN(C)CC4)CC3)c(OC)c2)nc1NC1CCOCC1 .
inactive

I would be grateful if you could indicate the recorded call for N#Cc1c(NC(=O)c2cccs2)[n+]([O-])c2ccc(F)cc2[n+]1[O-] .
inactive

I would be grateful if you could indicate the recorded call for O=c1nc2c(-c3nc4ccccc4s3)n[nH]n2c2sc3c(c12)CCCC3 .
inactive

I would be grateful if you could indicate the recorded call for COc1cc(NCCN(CC(C)C)CC(C)C)c2ncc(C)cc2c1 .
inactive

I would be grateful if you could indicate the recorded call for Cc1cc2c(-c3nc4ccccn4c3N)c(O)c(O)cc2c(O)c1-c1c(C)cc2c(-c3nc4ccccn4c3N)c(O)c(O)cc2c1O .
active

I would be grateful if you could indicate the recorded call for CO[C@@H](C)Cn1c(=O)n(C)c2cnc3ccc(-c4cncc(C(C)(C)O)c4)cc3c21 .
active

I would be grateful if you could indicate the recorded call for CNC(=O)c1nn(C)c2c1C(C)(C)Cc1cnc(Nc3ccc(N4CCN(C)CC4)cc3)nc1-2 .
active

I would be grateful if you could indicate the recorded call for CC[C@@H]1C(=O)N(C)c2cnc(Nc3ccc(C(=O)NC4CCC(N5CCN(CC6CC6)CC5)CC4)cc3OC)nc2N1C(C)C (stereo not given in full) .
active

I would be grateful if you could indicate the recorded call for COc1ccc(C2OC(c3cc(-c4cc5ccccc5o4)nn3-c3ccccc3)=NN2C(C)=O)cc1 (stereo not given) .
inactive

I would be grateful if you could indicate the recorded call for COc1ccc2c(c1OC)C(=O)O[C@@H]2[C@H]1c2c(c(C#CC#Cc3ccc(F)c(F)c3)c3c(c2OC)OCO3)CCN1C .
inactive

I would be grateful if you could indicate the recorded call for O=C(NC[C@H](O)CO)c1ccncc1Nc1ccc(I)cc1F .
inactive

I would be grateful if you could indicate the recorded call for CC(C)OP(=O)(CCC(=O)c1c[nH]c2ccccc12)OC(C)C .
inactive
